- measurement-target: T1, HLA-DR3 (DRB1*0301) (human)
- T1 construct: purified HLA class II molecule
- test-name: competition binding assay, purified HLA, 125I-labelled probe peptide, gel filtration
This section presents binders with their documented relative binding ratio values.

> print(dat)
                                     binder                endpoint                           reported
1  DNLYYWDQDPPERGA (also called Her2/neu.1218) [HER2/neu peptide DNLYYWDQDPPERGA (position 1218)]  relative binding ratio  -0.0025 ratio to standard peptide

Prompt: Would you kindly share the measured relative binding ratio for ETEYHADGGKVPIKW (also called Her2/neu.874) [HER2/neu peptide ETEYHADGGKVPIKW (position 874)] ?
Response: -0.0027 ratio to standard peptide

Prompt: Look at this binder and give its reported relative binding ratio. YNYLSTDVGSCTLVC (also called Her2/neu.301) [HER2/neu peptide YNYLSTDVGSCTLVC (position 301)]
Response: 0.0059 ratio to standard peptide

Prompt: Look at this binder and give its reported relative binding ratio. DTILWKDIFHKNNQL (also called Her2/neu.165) [HER2/neu peptide DTILWKDIFHKNNQL (position 165)]
Response: -0.0027 ratio to standard peptide

Prompt: Dear colleague, I am looking for the recorded relative binding ratio of the following binder: SLAFLPESFDGDPAS (also called Her2/neu.373) [HER2/neu peptide SLAFLPESFDGDPAS (position 373)]
Response: -0.0027 ratio to standard peptide

Prompt: Entry under review: VTCFGPEADQCVACA (also called Her2/neu.574) [HER2/neu peptide VTCFGPEADQCVACA (position 574)] . Reported relative binding ratio?
Response: -0.0027 ratio to standard peptide

Prompt: Can you look up the measured relative binding ratio of MRRLLQETELVEPLT (also called Her2/neu.687) [HER2/neu peptide MRRLLQETELVEPLT (position 687)] for me?
Response: -0.0027 ratio to standard peptide
